Data origin: the RNAGym collection of RNA variant scans (doi:10.1038/s41586-018-0170-7)

The following variants are shown together with reported yeast fitness (ln) values.
B1: tRNA (parent)
chain: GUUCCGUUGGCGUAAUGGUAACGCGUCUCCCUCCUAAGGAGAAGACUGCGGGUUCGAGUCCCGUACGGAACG

Variants of: B1
assay-text: yeast fitness, log relative to wild type (ln ratio); higher = fitter; tRNA-Arg(CCU), competitive growth, 37 C, 1 M NaCl
assay-metric: yeast fitness (ln)

| variant-annotation | measured |
| --- | --- |
| U2C G6U C27U A43C C66U A69G A70U C71U | -0.419 |
| U2C C66U C71U | -0.0912 |
| U2G C27U C46U C66A A70G | -0.0963 |
| G1A U2C G6A C66U | -0.121 |
| U2C C27U A43C A69G | -0.0976 |
| G1A A43C C66A A70U C71U | -0.321 |
| A43C C46U A69G A70G C71U | -0.0835 |
| G6A C27U C66U A69G C71U | -0.594 |
| U2G G6U A43C A70G | -0.173 |
| U2G G6U C46U A70U C71U | -0.461 |
| C27U A69G A70G C71U | -0.223 |
| U2G G6U A43C C46U C66U A70G C71U | -0.241 |
| G1A U2C G6A A43C C46U A69G A70U | -0.0463 |
| G1A G6U C27U A43C A70G | -0.439 |
| U2C G6U C27U C66A A70G C71U | -0.0263 |
| U2C C27U A43C C46U C71U | -0.0612 |
| G1A U2G G6U C27U A43C C46U C66U A70U | -0.383 |
| U2G G6A C27U C46U C66U A69G | -0.215 |
| G1A U2C G6U C27U A43C C71U | -0.263 |
| U2C A43C C66A A69G A70G | -0.186 |
| U2C C46U A69G A70U | -0.0822 |
| G1A G6U C66U A70G C71U | -0.272 |
| U2G G6U C27U C46U C66A A70G | -0.376 |
| G1A U2G G6U A43C C46U A69G A70G | -0.334 |
| G6A C27U C66U A69G | -0.0541 |
| U2C C27U A43C C66U C71U | -0.311 |
| U2C G6U C27U C66A C71U | -0.15 |
| G1A G6U A43C C66U A70G C71U | -0.424 |
| G6U C27U C46U C66U A69G A70G | -0.318 |
| U2C G6A A43C C46U C66U A70U | -0.209 |
| G1A G6U A43C C46U C66U A69G A70G | -0.389 |
| U2G G6A C27U C46U C66U A70G | -0.364 |
| G1A G6A A43C C46U C66A A69G A70G C71U | -0.261 |
| U2G G6A C27U A43C C46U A69G A70U C71U | -0.384 |
| U2C G6U C27U C46U A70U | -0.13 |
| U2C G6U C27U A43C C46U | -0.0629 |
| G1A U2C G6U A69G A70U | -0.152 |
| U2C G6U A43C C46U C66U C71U | -0.242 |
| U2G C27U C46U C66A A69G A70G C71U | -0.184 |
| G1A C66U A69G A70U | -0.174 |
| G1A U2C G6A C66U A69G A70G C71U | -0.0247 |
| G1A C27U A43C A69G C71U | -0.318 |
| U2G G6U C27U A43C C46U C66U A69G A70U | -0.374 |
| U2G C27U C46U C66U A69G A70U | -0.392 |
| U2C G6A A43C C46U C66A A69G A70G C71U | -0.112 |
| G1A G6U C46U C66U C71U | -0.057 |
| G1A U2C C27U C46U C66A A70G C71U | -0.262 |
| C27U C66A A70U C71U | -0.182 |
| G6U C27U A43C A70G C71U | -0.348 |
| U2G G6U C27U A43C C66U C71U | -0.381 |
| G1A U2C G6U C46U C66U A69G A70U | -0.156 |
| G1A G6A C46U C66A A70G C71U | -0.128 |
| G1A G6A C27U A43C A70U C71U | -0.314 |
| G1A U2C C27U C66U A69G A70G C71U | -0.585 |
| U2G C46U A69G A70G C71U | -0.184 |
| G1A G6U C27U C66A A69G C71U | -0.388 |
| G1A U2C G6U C27U | -0.0816 |
| G1A U2C G6A A43C C66U A69G A70G | -0.309 |
| U2C C27U C46U C66U A69G A70G | -0.0845 |
| G6U C66U A69G A70U | -0.261 |
| G1A G6U C27U C46U C66A A70U C71U | -0.415 |
| G6A C27U A43C C46U A69G C71U | -0.344 |
| G1A U2G G6U A43C C46U C66U A70U | -0.275 |
| G1A U2C C46U C66A A69G A70G C71U | -0.273 |
| C66U A70U C71U | -0.135 |
| U2G G6U A43C C66U A69G A70U | -0.379 |
| G1A U2C G6U C27U A43C C46U | -0.0772 |
| G1A U2G G6A A43C A69G A70G C71U | -0.29 |
| U2G G6A C27U A43C C66A A70U | -0.176 |
| G6A C46U A70G C71U | -0.145 |
| U2G G6U A43C C46U C66A A69G A70U | -0.0302 |
| U2G C27U A43C C46U C66A | -0.124 |
| U2G G6U C27U A43C C46U C66A A69G A70U C71U | -0.386 |
| G1A U2G C27U A43C | -0.182 |
| U2C G6A C27U C66U A70U | -0.203 |
| U2C G6U C27U A43C | -0.0819 |
| G1A U2G G6A C27U C46U C66A A70U | -0.187 |
| U2C G6A A43C C46U A69G C71U | -0.0945 |
| U2C G6U C66U A70U C71U | -0.233 |
| G6U A43C C46U C66U A69G A70U | -0.347 |
| G1A U2G C27U C71U | -0.108 |
| G6A C27U A43C C66A A70U C71U | -0.37 |
